biological target: 4'-phosphopantetheinyl transferase ffp (Bacillus subtilis); test: qHTS Assay for Inhibitors of Bacillus subtilis Sfp phosphopantetheinyl transferase (PPTase); conditions: Biochemical Sfp PPTase activity;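 further: the enzyme is Sfp with the accession as filed and its product quenches rhodamine fluorescence; 0% = enzyme reaction without inhibitor and -100% = no enzyme wells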
In all, about 310,000 compounds went through this assay and about 11,000 (3.5%) were called active. Inconclusive results (about 4%) are left out. The sample holds actives, similar compounds and a random draw of the others, so the mix is not that of the screen.
In this section we review reported largest response in the series, negative = inhibition values for a set of compounds.
A number alone suffices; assume %.

Examples from the recorded data:
CCOc1cc(C)ccc1OCc1nnc(SCC(=O)Nc2cccc(C(=O)O)c2)n1-c1ccccc1 = 22.3
Cc1ccc(OCCCn2c(=O)oc3ccccc32)cc1 = -10.3
CCOC(=O)/C(C#N)=C/c1ccc(N2CCCCC2)cc1 = -25.4
Cc1ccccc1C(=O)Nc1ccc(N2CCCCCC2)cc1 = -8.31
CSc1ccc(CCNC(=O)CS(=O)(=O)Cc2nc(-c3ccccc3F)oc2C)cc1 = 17.7

Problem: Note largest response in the series, negative = inhibition for the compound shown: COC(=O)c1sc(N2CCN(Cc3ccccc3)CC2)nc1N
Solution: -0.821

Problem: Note largest response in the series, negative = inhibition for the compound shown: CCCCOC(=O)Cn1c(=O)n(CC(=O)OCCCC)c2cc(C)ccc21
Solution: 7.32

Problem: Note largest response in the series, negative = inhibition for the compound shown: COc1ccc(CCNC(=O)c2c(C)nn(-c3ccccc3)c2Cl)cc1
Solution: 9.27

Problem: Note largest response in the series, negative = inhibition for the compound shown: CC(=O)Nc1ccc(S(=O)(=O)Nc2cc(C)cn(Cc3ccc(C)cc3)c2=O)cc1
Solution: 1.38

Problem: Note largest response in the series, negative = inhibition for the compound shown: COC(=O)c1sc(=S)n(-c2ccc(Cl)cc2)c1C
Solution: -2.12

Problem: Note largest response in the series, negative = inhibition for the compound shown: CCCn1c(C2CCCN2c2nc(-c3ccc(C)cc3)cs2)nc2cc(Cl)c(N3CCCCC3)cc21 (stereo unspecified)
Solution: -23.2
